Tested on: OVCAR-3
assay.text: Growth inhibition of human OVCAR3 cells
Type: functional
readout.type: log10 of GI50 (log10 of the value in nM)

- O=C1Nc2ccccc2/C1=C/c1cn(C(=O)c2c(Cl)cccc2Cl)c2ccccc12: 3.20
- CC1=NN(c2cccc(Cl)c2)C(=O)/C1=C\c1c(O)ccc2ccccc12: 4.77
- O=C1/C(=C\c2coc3ccccc3c2=O)c2ccccc2N1c1c(Cl)cccc1Cl: 3.41
- CC1=NN(c2cccc(Cl)c2)C(=O)/C1=C\C=C\c1ccccc1: 3.32
- O=C1/C(=C\c2ccccn2)c2ccccc2N1c1c(Cl)cccc1Cl: 3.23

====

Known GI50 of a selection of compounds
System: EKVX
assay.text: Growth inhibition of human EKVX cells
Assay type: functional
readout.type: GI50 (nM)

• O=C1/C(=C\c2coc3ccccc3c2=O)c2ccccc2N1c1c(Cl)cccc1Cl = 2800
• CC1=NN(c2cccc(Cl)c2)C(=O)/C1=C\C=C\c1ccccc1 = 3000
• O=C1Nc2ccccc2/C1=C/c1cn(C(=O)c2c(Cl)cccc2Cl)c2ccccc12 = 2800
• O=C1/C(=C\c2ccccn2)c2ccccc2N1c1c(Cl)cccc1Cl = 2000
